Biological target: T1, C-10 peptide
T1 construct: also called PSMGFR C-10; PSMGFR minus 10 amino acids from the C-terminus
T1 peptide: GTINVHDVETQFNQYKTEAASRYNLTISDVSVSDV
Experiment: ELISA, peptide on plate (FIG. 201C)
Protocol: FIG. 201A-201C show graphs of ELISA assays to determine the binding of another set of antibodies generated by immunizing animals with the PSMGFR peptide. […] F3, B12, B2, B7, B9, 8C7F3 and H11 all bound to the PSMGFR peptide and to the N-10 peptide. This same ELISA assay was performed on the antibodies of the invention (FIGS. 64-66 and FIG. 201). Note that only 20A10 exactly matches the binding profile of MNC2 and MNE6. 25E6, 28F9 and 18G12 are all able to bind to the N-10 peptide. […]
Experimental Readout: binding result

monoclonal antibody B2 (antibody, V domains shown, Raised against PSMGFR) VH: EVVLVESGGGLVEPGGSLKLSCVASGFAFSTFAMSWIRQTPEKRLEWVAAISNGGGYTYYPDTLKGRFSISRDNAKNTLYLQMSSLRSEDTAVYYCARRYYDLYFDLWGRGTSLIVSS VL: DILMTQTPLSLPVSLGDQASISCRSSQNIVHSNGNTYLEWYLQKPGQSPKLLIYKVSNRFSGVPDRFSGSGSGTDFTLKISRVEAEDLGVYYCFQDSHVPLTFGAGTRLELK : no binding
monoclonal antibody B7 (antibody, V domains shown, Raised against PSMGFR) VH: EVQVVESGGDLVKPGGSLKLSCAASGFTFSRYGMSWVRQTPDKRLEWVATISSGGTYIYYPDSVKGRFTISRDNAKNTLYLQMSSLKSEDTAMYYCARDNYGSSYDYAMDYWGQGTSVTVSS VL: DVLMTQTPLSLPVSLGDQASISCRSSQTIVHSNGNTYLEWYLQKPGQSPKLLIYKVSNRFSGVPDRFSGSGSGTDFTLKISRVEAEDLGVYYCFQDSHVPLTFGAGTKLELK : no binding
